# assay-text: thermodynamic solubility of regorafenib monohydrate in different solvents
# Format: physicochemical
# condition: organic solvent or mixture, thermodynamic from solid, solvent: Ethanol
assay-metric: solubility (µg/mL)
Report the figure in µg/mL without appending any unit label.

Fill blank: measured solubility of the compound CNC(=O)c1cc(Oc2ccc(NC(=O)Nc3ccc(Cl)c(C(F)(F)F)c3)c(F)c2)ccn1 [regorafenib monohydrate] is ____.
6400

###

# assay-text: thermodynamic solubility of regorafenib monohydrate in different solvents
# Format: physicochemical
# condition: aqueous with cosolvent or surfactant or cyclodextrin, thermodynamic from solid, solvent: PEG 400/water (30:70)
assay-metric: solubility (µg/mL)
Just the number in µg/mL, nothing appended.

Entry under review: CNC(=O)c1cc(Oc2ccc(NC(=O)Nc3ccc(Cl)c(C(F)(F)F)c3)c(F)c2)ccn1 [regorafenib monohydrate] . Reported solubility?
270

###

# assay-text: thermodynamic solubility of regorafenib monohydrate in different solvents
# Type: physicochemical
# condition: organic solvent or mixture, thermodynamic from solid, solvent: Polyethylenglycol (PEG) 400
assay-metric: solubility (mg/mL)
Respond numerically; units are mg/mL and should not be typed.

Would you kindly share the measured solubility for CNC(=O)c1cc(Oc2ccc(NC(=O)Nc3ccc(Cl)c(C(F)(F)F)c3)c(F)c2)ccn1 [regorafenib monohydrate] ?
67.3

###

# assay-text: thermodynamic solubility of regorafenib monohydrate in different solvents
# Type: physicochemical
# condition: light liquid paraffin, oil or lipid, thermodynamic from solid, solvent: Ligth liquid paraffin
assay-metric: solubility

Give its solubility value. Item: CNC(=O)c1cc(Oc2ccc(NC(=O)Nc3ccc(Cl)c(C(F)(F)F)c3)c(F)c2)ccn1 [regorafenib monohydrate]
< 0.1 mg/mL

###

# assay-text: thermodynamic solubility of regorafenib monohydrate in different solvents
# Format: physicochemical
# condition: thermodynamic from solid, solvent: Water
assay-metric: solubility

Give the measured solubility of CNC(=O)c1cc(Oc2ccc(NC(=O)Nc3ccc(Cl)c(C(F)(F)F)c3)c(F)c2)ccn1 [regorafenib monohydrate] .
< 100 µg/mL

###

# assay-text: thermodynamic solubility of regorafenib monohydrate in different solvents
# Assay type: physicochemical
# condition: aqueous with cosolvent or surfactant or cyclodextrin, thermodynamic from solid, solvent: HPβ-Cyclodextrin/water (10:90)
assay-metric: solubility

Reported solubility, molecule CNC(=O)c1cc(Oc2ccc(NC(=O)Nc3ccc(Cl)c(C(F)(F)F)c3)c(F)c2)ccn1 [regorafenib monohydrate] : ____
< 100 µg/mL
